// Qunt. Yield lookup, one value per entry
Assay: Spectroscopic measurements (absorption, emission, quantum yield, extinction coefficient)
Format: physicochemical
Settings: BDNCA library

{"columns": ["querySmiles", "Qunt. Yield"],
 "data": [
  ["COc1cccc(/C=C/C2=[N+]3C(=C(c4ccc(NC(=O)CCl)cc4)c4cccn4[B-]3(F)F)C(C)=C2)c1OC", 0.12],
  ["COc1cccc(F)c1/C=C/C1=[N+]2C(=C(c3ccc(NC(=O)CCl)cc3)c3cccn3[B-]2(F)F)C(C)=C1", 0.09],
  ["CC1=CC(/C=C/c2cccc(O)c2)=[N+]2C1=C(c1ccc(NC(=O)CCl)cc1)c1cccn1[B-]2(F)F", 0.06],
  ["CCCOc1ccc(/C=C/c2cc(C)c3n2[B-](F)(F)[N+]2=CC=CC2=C3c2ccc(NC(=O)CCl)cc2)cc1", 0.07],
  ["CCOC(OCC)c1ccc(/C=C/C2=[N+]3C(=C(c4ccc(NC(=O)CCl)cc4)c4cccn4[B-]3(F)F)C(C)=C2)cc1", 0.03],
  ["CC1=CC(/C=C/c2ccc(Cl)cc2)=[N+]2C1=C(c1ccc(NC(=O)CCl)cc1)c1cccn1[B-]2(F)F", 0.10]
]}

----------
// Abs lookup, one value per entry
Assay: Spectroscopic measurements (absorption, emission, quantum yield, extinction coefficient)
Format: physicochemical
Details: BDNCA library, absorption
metricName: Abs (nm)

{"columns": ["compound", "assayValue"],
 "data": [
  ["CC1=CC(/C=C/c2cc(C)c(OCc3ccccc3)c(C)c2)=[N+]2C1=C(c1ccc(NC(=O)CCl)cc1)c1cccn1[B-]2(F)F [BDNCA-16]", 562],
  ["CC1=CC(/C=C/c2ccc(OCCCN(C)C)cc2)=[N+]2C1=C(c1ccc(NC(=O)CCl)cc1)c1cccn1[B-]2(F)F [BDNCA-163]", 566],
  ["COc1ccc(Oc2ccc(/C=C/c3cc(C)c4n3[B-](F)(F)[N+]3=CC=CC3=C4c3ccc(NC(=O)CCl)cc3)cc2)cc1 [BDNCA-178]", 563],
  ["CC1=CC(/C=C/c2c(C)cc(C)cc2C)=[N+]2C1=C(c1ccc(NC(=O)CCl)cc1)c1cccn1[B-]2(F)F [BDNCA-108]", 549],
  ["C=CCOc1ccccc1/C=C/C1=[N+]2C(=C(c3ccc(NC(=O)CCl)cc3)c3cccn3[B-]2(F)F)C(C)=C1 [BDNCA-202]", 561],
  ["CCOc1ccc(/C=C/C2=[N+]3C(=C(c4ccc(NC(=O)CCl)cc4)c4cccn4[B-]3(F)F)C(C)=C2)cc1OCC [BDNCA-53]", 570],
  ["CCCc1ccc(/C=C/C2=[N+]3C(=C(c4ccc(NC(=O)CCl)cc4)c4cccn4[B-]3(F)F)C(C)=C2)cc1 [BDNCA-77]", 559],
  ["CC1=CC(/C=C/c2ccc(Oc3cccc(Cl)c3)cc2)=[N+]2C1=C(c1ccc(NC(=O)CCl)cc1)c1cccn1[B-]2(F)F [BDNCA-290]", 557],
  ["CC1=CC(/C=C/c2ccc(C(C)C)cc2)=[N+]2C1=C(c1ccc(NC(=O)CCl)cc1)c1cccn1[B-]2(F)F [BDNCA-19]", 558],
  ["CC1=CC(/C=C/C=C(c2ccccc2)c2ccccc2)=[N+]2C1=C(c1ccc(NC(=O)CCl)cc1)c1cccn1[B-]2(F)F [BDNCA-85]", 583],
  ["CC1=CC(/C=C/c2cccc(I)c2)=[N+]2C1=C(c1ccc(NC(=O)CCl)cc1)c1cccn1[B-]2(F)F [BDNCA-303]", 556],
  ["CC1=CC(/C=C/c2ccc(N(c3ccccc3)c3ccccc3)cc2)=[N+]2C1=C(c1ccc(NC(=O)CCl)cc1)c1cccn1[B-]2(F)F [BDNCA-14]", 599],
  ["COc1ccc(/C=C/c2cc(C)c3n2[B-](F)(F)[N+]2=CC=CC2=C3c2ccc(NC(=O)CCl)cc2)c2ccccc12 [BDNCA-32]", 583]
]}
